- experimental details: Rat PK study: concentration of compounds in large intestine tissue and plasma
- Format: in vivo
- condition context: male, SD, plasma, 3 mg/kg oral, non-fasted, read-out: Cmax: maximum plasma concentration of test compounds in the case of oral administration
The following compounds are shown together with reported Cmax values.
experimental readout: Cmax (ng/mL)

- smiles data: "Cn1c(C(=O)O)cnc1CN1CC[C@H](n2c(=O)n(-c3ccc(-c4ccc(C(=O)O)cc4)cc3)c3cccnc32)C1"
  result comparator: "="
  reported measurement: 5
- smiles data: "Cn1c(C(=O)O)cnc1CN1CC[C@H](n2c(=O)n(-c3ccc(-c4ccc(C(=O)O)cc4)c(O)c3)c3cccnc32)C1"
  result comparator: "="
  reported measurement: 1
- smiles data: "O=C(O)c1ccc(-c2ccc(-n3c(=O)n([C@H]4CCN(Cc5cc(C(=O)O)ccn5)C4)c4ncccc43)cc2O)cc1"
  result comparator: "="
  reported measurement: 2
- smiles data: "O=C(O)c1ccc(-c2ccc(-n3c(=O)n([C@H]4CCN(Cc5cc(C(=O)O)ccn5)C4)c4ncccc43)cn2)cc1"
  result comparator: "="
  reported measurement: 3
- smiles data: "Cn1ccnc1CN1CC[C@H](n2c(=O)n(-c3ccc(-c4ccc(C(=O)O)cc4)c(O)c3)c3cccnc32)C1"
  result comparator: "<"
  reported measurement: 1
- smiles data: "Cn1ccnc1CN1CC[C@H](n2c(=O)n(-c3ccc(-c4ccc(C(=O)O)cc4)cc3O)c3cccnc32)C1"
  result comparator: "="
  reported measurement: 7
- smiles data: "Cn1ccnc1CN1CC[C@H](n2c(=O)n(-c3ccc(-c4ccc(C(=O)O)cc4)cc3)c3cccnc32)C1"
  result comparator: "="
  reported measurement: 60
- smiles data: "Cn1c(C(=O)O)cnc1CN1CC[C@H](n2c(=O)n(-c3ccc(-c4ccc(C(=O)O)cc4)cc3O)c3cccnc32)C1"
  result comparator: "="
  reported measurement: 4
- smiles data: "O=C(O)c1ccc(-c2ccc(-n3c(=O)n([C@H]4CCN(Cc5cc(C(=O)O)ccn5)C4)c4ncccc43)cc2)cc1"
  result comparator: "="
  reported measurement: 8

###

- experimental details: Rat PK study: concentration of compounds in large intestine tissue and plasma
- Assay type: in vivo
- condition context: male, SD, plasma, 3 mg/kg oral, 8 hours, read-out: Plasma: plasma test compound concentration after 8 hours

- molecule: "O=C(O)c1ccc(-c2ccc(-n3c(=O)n([C@H]4CCN(Cc5cc(C(=O)O)ccn5)C4)c4ncccc43)cn2)cc1 [Example 46]"
  concentration at 8 h: "< 1 ng/mL"
- molecule: "Cn1c(C(=O)O)cnc1CN1CC[C@H](n2c(=O)n(-c3ccc(-c4ccc(C(=O)O)cc4)nc3)c3cccnc32)C1 [Example 85]"
  concentration at 8 h: "< 1 ng/mL"
- molecule: "O=C(O)c1ccc(-c2ccc(-n3c(=O)n([C@H]4CCN(Cc5cc(C(=O)O)ccn5)C4)c4ncccc43)cc2O)cc1 [Example 45]"
  concentration at 8 h: "< 1 ng/mL"
- molecule: "Cn1c(C(=O)O)cnc1CN1CC[C@H](n2c(=O)n(-c3ccc(-c4ccc(C(=O)O)cc4)c(O)c3)c3cccnc32)C1 [Example 84]"
  concentration at 8 h: "< 1 ng/mL"

###

- target desc: human PHD2184-418 (Homo sapiens (Human))
- Sequence (Q9GZT9 184-418): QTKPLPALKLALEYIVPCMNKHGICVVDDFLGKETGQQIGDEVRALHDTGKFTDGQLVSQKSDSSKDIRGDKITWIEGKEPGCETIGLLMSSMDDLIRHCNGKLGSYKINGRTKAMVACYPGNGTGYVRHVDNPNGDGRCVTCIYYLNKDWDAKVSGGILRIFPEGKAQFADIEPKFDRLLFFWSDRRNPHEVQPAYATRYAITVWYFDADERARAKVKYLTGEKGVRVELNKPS
pIC50: −log10 of the molar value.
Hi, to clarify the labels: yes (1) covers pIC50 from 6 upward, no (0) covers anything below 6.

- smiles data: "COC(=O)c1ccc(-c2ccc(-n3c(=O)n([C@@H]4CCN(Cc5nccn5C)C4)c4ncccc43)c(C)c2)cc1"
  target desc: "human PHD2184-418 (Homo sapiens (Human))"
  classification: "no (0)"
- smiles data: "Cn1c(C(=O)O)cnc1CN1CC[C@H](n2c(=O)n(-c3ccc(-c4ccccc4)cc3)c3ccc(C(=O)NC4CCOCC4)nc32)C1"
  target desc: "human PHD2184-418 (Homo sapiens (Human))"
  classification: "no (0)"
- smiles data: "Cc1cccnc1CN1CC[C@H](n2c(=O)n(-c3ccc(-c4ccc(O)cc4)cc3)c3cccnc32)C1"
  target desc: "human PHD2184-418 (Homo sapiens (Human))"
  classification: "no (0)"
- smiles data: "O=c1n(-c2ccc(-c3ccccc3)cc2)c2cccnc2n1[C@H]1CCN(Cc2cc(O)ccn2)C1"
  target desc: "human PHD2184-418 (Homo sapiens (Human))"
  classification: "no (0)"
- smiles data: "O=C(O)c1ccc(-c2ccc(-n3c(=O)n([C@H]4CCN(Cc5cc(C(=O)O)ccn5)C4)c4ncccc43)cc2O)cc1"
  target desc: "human PHD2184-418 (Homo sapiens (Human))"
  classification: "yes (1)"
- smiles data: "Cc1cc(C(=O)O)ccc1-c1ccc(-n2c(=O)n([C@H]3CCN(Cc4ncc(C(=O)O)n4C)C3)c3ncccc32)cn1"
  target desc: "human PHD2184-418 (Homo sapiens (Human))"
  classification: "yes (1)"
